B1: KNL1 residues 2,026–2,342 [human] / Mis12 complex (Mis12C), full length: MIS12, PMF1, NSL1, DSN1 [human] (parent complex)
chain 1: SAQNEREKLQIKIDEMDKILKKIDNCLTEMETETKNLEDEEKNNPVEEWDSEMRAAEKELEQLKTEEEELQRNLLELEVQKEQTLAQIDFMQKQRNRTEELLDQLSLSEWDVVEWSDDQAVFTFVYDTIQLTITFEESVVGFPFLDKRYRKIVDVNFQSLLDEDQAPPSSLLVHKLIFQYVEEKESWKKTCTTQHQLPKMLEEFSLVVHHCRLLGEEIEYLKRWGPNYNLMNIDINNNELRLLFSSSAAFAKFEITLFLSAYYPSVPLPSTIQNHVGNTSQDDIATILSKVPLENNYLKNVVKQIYQDLFQDCHFYH
chain 2: MSVDPMTYEAQFFGFTPQTCMLRIYIAFQDYLFEVMQAVEQVILKKLDGIPDCDISPVQIRKCTEKFLCFMKGHFDNLFSKMEQLFLQLILRIPSNILLPEDKCKETPYSEEDFQHLQKEIEQLQEKYKTELCTKQALLAELEEQKIVQAKLKQTLTFFDELHNVGRDHGTSDFRESLVSLVQNSRKLQNIRDNVEKESKRLKIS
chain 3: MAEASSANLGSGCEEKRHEGSSSESVPPGTTISRVKLLDTMVDTFLQKLVAAGSYQRFTDCYKCFYQLQPAMTQQIYDKFIAQLQTSIREEISDIKEEGNLEAVLNALDKIVEEGKVRKEPAWRPSGIPEKDLHSVMAPYFLQQRDTLRRHVQKQEAENQQLADAVLAGRRQVEELQLQVQAQQQAWQALHREQRELVAVLREPE
chain 4: MAGSPELVVLDPPWDKELAAGTESQALVSATPREDFRVRCTSKRAVTEMLQLCGRFVQKLGDALPEEIREPALRDAQWTFESAVQENISINGQAWQEASDNCFMDSDIKVLEDQFDEIIVDIATKRKQYPRKILECVIKTIKAKQEILKQYHPVVHPLDLKYDPDPAPHMENLKCRGETVAKEISEAMKSLPALIEQGEGFSQVLRMQPVIHLQRIHQEVFSSCHRKPDAKPENFITQIETTPTETASRKTSDMVLKRKQTKDCPQRKWYPLRPKKINLDT
chain 5: MTSVTRSEIIDEKGPVMSKTHDHQLESSLSPVEVFAKTSASLEMNQGVSEERIHLGSSPKKGGNCDLSHQERLQSKSLHLSPQEQSASYQDRRQSWRRASMKETNRRKSLHPIHQGITELSRSISVDLAESKRLGCLLLSSFQFSIQKLEPFLRDTKGFSLESFRAKASSLSEELKHFADGLETDGTLQKCFEDSNGKASDFSLEASVAEMKEYITKFSLERQTWDQLLLHYQQEAKEILSRGSTEAKITEVKVEPMTYLGSSQNEVLNTKPDYQKILQNQSKVFDCMELVMDELQGSVKQLQAFMDESTQCFQKVSVQLGKRSMQQLDPSPARKLLKLQLQNPPAIHGSGSGSCQ

Variants of: B1
testName: ITC; syringe KNL1^WT; cell Mis12C^M2; parent: 1.56 nM
recordedMetric: Kd (nM)

> print(dat)
                               variantlabel  value
1  chain 3 R195E, chain 3 V198L, chain 5 L290F   24.8
